target_or_system: κ-opioid receptor (Homo sapiens (Human), UniProt P41145)
experimental_protocol: κ-opioid receptor [35S]GTPγS functional assay, HEK-293 or CHO cells
Assay type: biochemical
condition_summary: relative to U69,593; HEK-293 or CHO cells
Record 1 whenever Emax is at 40% or higher; record -1 when lower.

substance_smiles	discrete_label
O=C(O)c1cc2c([nH]c1=O)C[C@]13CCN(CC4CC4)[C@H](Cc4ccc(O)cc41)[C@]3(O)C2	-1
COC(=O)c1cc2c([nH]c1=O)C[C@]13CCN(CC4CC4)[C@H](Cc4ccc(OC)cc41)[C@]3(O)C2	-1
COC(=O)c1cc2c([nH]c1=O)C[C@]13CCN(CC4CC4)[C@H](Cc4ccc(OC)cc41)[C@@H]3C2	1
O=C(O)c1cc2c([nH]c1=O)C[C@]13CCN(CC4CC4)[C@H](Cc4ccc(O)cc41)[C@@H]3C2	-1
CC(C)C[C@H](NC(=O)c1cc2c([nH]c1=O)C[C@]13CCN(CC4CC4)[C@H](Cc4ccc(O)cc41)[C@@H]3C2)C(N)=O	-1

Request: Assess whether reported Emax for `NC(=O)c1cc2c([nH]c1=O)C[C@]13CCN(CCc4ccccc4)[C@H](Cc4ccc(O)cc41)[C@]3(O)C2` sits at 40% or higher.
Result: -1

Request: Assess whether reported Emax for `C[C@H](NC(=O)c1cc2c([nH]c1=O)C[C@]13CCN(CC4CC4)[C@H](Cc4ccc(O)cc41)[C@@H]3C2)C(N)=O` sits at 40% or higher.
Result: -1

Request: Assess whether reported Emax for `NC(=O)[C@H](Cc1ccccc1)NC(=O)c1cc2c([nH]c1=O)C[C@]13CCN(CC4CC4)[C@H](Cc4ccc(O)cc41)[C@@H]3C2` sits at 40% or higher.
Result: -1

Request: Assess whether reported Emax for `NC(=O)c1cc2c([nH]c1=O)C[C@]13CCN(CC4CC4)[C@H](Cc4ccc(O)cc41)[C@@H]3C2` sits at 40% or higher.
Result: -1

Request: Assess whether reported Emax for `NC(=O)[C@@H]1CCCN1C(=O)c1cc2c([nH]c1=O)C[C@]13CCN(CC4CC4)[C@H](Cc4ccc(O)cc41)[C@@H]3C2` sits at 40% or higher.
Result: 1

Request: Assess whether reported Emax for `COc1ccc2c(c1)[C@]13CCN(CC4CC4)[C@H](C2)[C@@H]1Cc1cc(C(N)=O)c(=O)[nH]c1C3` sits at 40% or higher.
Result: 1

Request: Assess whether reported Emax for `NC(=O)c1cc2c([nH]c1=O)C[C@]13CCN(CC4CC4)[C@H](Cc4ccc(O)cc41)[C@]3(O)C2` sits at 40% or higher.
Result: -1
